Overview of reported IC50 across a group of compounds:
target: memapsin 2 (Cricetulus griseus); construct: endogenous in cells; experiment: Cellular Aβ IC50 determination (Aβ40 sandwich ELISA); conditions: CHO cells over-expressing human APP695 with London and Swedish mutations, 24 h, read-out: M2 IC50
Sequence (G3IAK4 22-501): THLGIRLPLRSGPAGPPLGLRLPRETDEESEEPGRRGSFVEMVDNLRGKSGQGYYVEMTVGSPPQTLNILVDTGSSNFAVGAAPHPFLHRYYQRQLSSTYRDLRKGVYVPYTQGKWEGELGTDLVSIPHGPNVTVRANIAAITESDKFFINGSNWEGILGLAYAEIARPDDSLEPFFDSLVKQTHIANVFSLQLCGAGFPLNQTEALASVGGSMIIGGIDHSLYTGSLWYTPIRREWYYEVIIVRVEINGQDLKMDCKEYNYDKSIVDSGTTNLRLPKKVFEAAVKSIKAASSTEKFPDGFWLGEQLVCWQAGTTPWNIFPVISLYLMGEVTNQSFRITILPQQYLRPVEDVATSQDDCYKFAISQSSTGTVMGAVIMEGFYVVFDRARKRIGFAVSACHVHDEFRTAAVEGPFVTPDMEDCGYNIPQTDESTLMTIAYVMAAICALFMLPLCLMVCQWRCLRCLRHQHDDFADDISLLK
reported_endpoint: IC50

>>> observed("Cc1csc(CN(C)C(=O)c2cc(C(=O)N[C@@H](Cc3ccccc3)[C@H](O)[C@H]3CCCN3C(=O)OC(C)(C)C)cc(-c3ncco3)c2)n1 [1-7]")
"> 1000 nM"
>>> observed("Cc1csc(CN(C)C(=O)c2cccc(C(=O)N[C@@H](Cc3ccccc3)[C@H](O)[C@H]3C[C@@H](OCc4ccccc4)CN3)c2)n1 [1-9]")
"< 500 nM"
>>> observed("Cc1csc([C@H]2CCCN2C(=O)c2cc(C(=O)N[C@@H](Cc3cc(F)cc(F)c3)[C@H](O)[C@H]3CCCN3)cc(-c3ncco3)c2)n1 [1-49]")
"< 500 nM"
>>> observed("Cc1csc([C@H]2CCCN2C(=O)c2cc(C(=O)N[C@@H](Cc3ccccc3)[C@H](O)[C@H]3CCCN3)cc(N3CCCC3=O)c2)n1 [1-39]")
"< 500 nM"
>>> observed("Cc1csc(CN(C)C(=O)c2cc(C(=O)N[C@@H](Cc3ccccc3)[C@H](O)[C@H]3CCCN3)cc(-c3ncco3)c2)n1 [1-15]")
"< 500 nM"
>>> observed("Cc1cc(C(=O)N[C@@H](Cc2ccccc2)[C@H](O)[C@H]2CCCN2C(=O)OC(C)(C)C)cc(C(=O)N2CCC[C@@H]2c2nc(C)co2)c1 [1-6]")
"> 1000 nM"
